The origin of these recorded values is patent US12195427B2.

Can you tell me d(CA1,O1) for the items I'm about to list?
- TESTED_ON: MASP-2 CCP2-SP (Homo sapiens (Human), UniProt O00187)
- Sequence (O00187 445-686): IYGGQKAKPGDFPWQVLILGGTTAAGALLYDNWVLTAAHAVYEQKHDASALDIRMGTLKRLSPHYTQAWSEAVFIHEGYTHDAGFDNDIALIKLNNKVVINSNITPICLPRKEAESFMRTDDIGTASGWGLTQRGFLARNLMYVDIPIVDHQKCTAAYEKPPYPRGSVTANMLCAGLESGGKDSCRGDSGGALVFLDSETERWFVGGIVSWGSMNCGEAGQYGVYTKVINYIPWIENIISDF
- Sequence (O00187 364-432 partner): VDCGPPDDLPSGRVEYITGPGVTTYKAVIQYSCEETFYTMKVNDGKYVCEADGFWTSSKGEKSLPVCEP
- ASSAY_COMMENT: MASP-2 co-crystallization, X-ray crystallography and structure analysis (H-bonds, van der Waals contacts)
- MEASUREMENT_CONDITIONS: Table A5-1 pharmacophore: distance between elements, S2/S1 region
Where a name gives a salt, the structure may show the parent alone.
Give bare numbers.

# example entries with known answers
In [3]: df
Out[3]:
                                   compound  test_value
0  C[C@H](NC(=O)[C@H](N)CCc1ccccc1)C(=O)NCc1ccc(N)nc1.Cl.Cl [1007_1]        4.39
1  Cc1nc(N)ccc1CNC(=O)[C@H](C)NC(=O)[C@H]1C[C@@H](Cc2ccccc2)CCN1 [compound 1353]        4.38
2  C[C@H](NC(=O)[C@H]1C[C@H](Cc2ccccc2)CN1)C(=O)NCc1cc(Cl)ccc1-n1cnnn1 [compound 1371, Hydrochloride]        3.46
3  C[C@H](NC(=O)[C@H](N)CCc1ccccc1)C(=O)NCc1ccc(N)nc1.Cl.Cl [1007_2]        4.52
4  C[C@H](NC(=O)[C@H]1C[C@@H](c2ccccc2)CN1)C(=O)NCc1ccc2c(N)nccc2c1.Cl.Cl [1089_B]        5.68
5  Cc1nc(N)ccc1CNC(=O)[C@H](C)NC(=O)[C@H]1C[C@H](Cc2cccc(Cl)c2)CN1.Cl.Cl [1328_3]        4.82
6  N=C(N)c1ccc(CNC(=O)[C@@H]2CCN2C(=O)[C@H](NCC(=O)O)C2Cc3ccccc3C2)cc1 [compound 1129]        4.47
7  C[C@H](NC(=O)[C@H]1C[C@@H](c2ccccc2)CCN1)C(=O)NCc1cc(Cl)ccc1O.Cl [1078_7]        4.83
8  CC(=O)Nc1ccc(CCNC(CCc2ccccc2)C(=O)NC(C)C(=O)NCc2ccc(C(=N)N)cc2)cc1.Cl.Cl (centres unmarked) [1345_1]        4.52
9  C[C@H](NC(=O)[C@H]1C[C@H](Cc2ccccc2)CN1)C(=O)NCc1cnc2[nH]cc(Cl)c2c1 [compound 1334]        5.33

Please state, for each entry, its recorded d(CA1,O1).
1. C[C@H](NC(=O)[C@H]1C[C@@H](c2ccccc2)CCN1)C(=O)NCc1ccc(C(=N)N)cc1 (stereo in doubt) [compound 1065]
2. CC(NC(=O)C1CC(Cc2ccccc2)CN1)C(=O)NCc1cnc2c(c1)c(Cl)cn2C.Cl.Cl (centres unmarked) [1450_B]
3. C[C@H](NC(=O)[C@H]1C[C@@H](c2ccccc2)CCN1)C(=O)NCc1cnc2[nH]cc(Cl)c2c1 [compound 1433]
4. Cc1nc(N)ccc1CNC(=O)C(C)NC(=O)C1CC(c2cccc3ccccc23)CCN1.Cl.Cl (centres unmarked) [1297_3]
5. C[C@H](NC(=O)[C@H]1C[C@@H](c2ccccc2)CCN1)C(=O)NCc1cc(Cl)ccc1O.Cl [1078_4]

[A]
1. 4.32
2. 5.49
3. 5.49
4. 4.43
5. 4.56

Each compound below has a reported value. Please supply its d(CA1,O1).
1. Cc1nc(N)ccc1CNC(=O)[C@H](C)NC(=O)[C@H]1C[C@@H](c2cccc3ccccc23)CCN1.Cl.Cl [1297_4]
2. CC(NC(=O)C(CCc1ccccc1)NCCCc1ccc(O)cc1)C(=O)NCc1ccc(C(=N)N)cc1.Cl.Cl (centres unmarked) [1145_A]
3. C[C@H](NC(=O)[C@H](N)CCc1cccc(Cl)c1)C(=O)NCc1ccc(C(=N)N)cc1 [compound 1081]
4. Cc1nc(N)ccc1CNC(=O)[C@H](C)NC(=O)[C@H]1C[C@H](Cc2ccccc2-c2ccccc2)CN1 [compound 1373, Di-trifluoroacetate salt]
5. CC(NC(=O)C(CCc1ccccc1)NCc1ccc(C(=O)N2CCOCC2)cc1)C(=O)NCc1ccc(C(=N)N)cc1.Cl.Cl (centres unmarked) [1153_A]
6. Cc1nc(N)ccc1CNC(=O)[C@H](C)NC(=O)[C@H]1C[C@H](Cc2ccccc2Br)CN1.O=C(O)C(F)(F)F.O=C(O)C(F)(F)F [1372_A]
7. C[C@H](NC(=O)[C@H](N)CCc1ccccc1)C(=O)NCc1ccc(C(=N)N)cc1 [compound 1024]
8. N=C(N)c1ccc(CNC(=O)C(CF)NC(=O)[C@H](N)CCc2ccccc2)cc1 (some centres unmarked) [compound 1050, Dihydrochloride]

[A]
1. 4.44
2. 4.42
3. 4.57
4. 4.41
5. 5.79
6. 4.38
7. 4.37
8. 4.10

State recorded d(CA1,O1) for all listed compounds.
1. Cc1nc(N)ccc1CNC(=O)[C@H](C)NC(=O)[C@H]1C[C@H](Cc2cccc(Cl)c2)CN1.Cl.Cl [1328_4]
2. Cc1nc(N)ccc1CNC(=O)[C@H](C)NC(=O)[C@H]1C[C@H](Cc2cccc(-c3ccccc3)c2)CN1 [compound 1406]
3. Cc1nc(N)ccc1CNC(=O)[C@H](C)NC(=O)[C@H]1C[C@H](Cc2ccc3ccccc3c2)CN1 [compound 1338]
4. C[C@H](NC(=O)[C@H]1C[C@@H](c2ccccc2)CCN1)C(=O)NCc1cc(Cl)ccc1O.Cl [1078_13]
5. C[C@H](NC(=O)[C@H]1C[C@H](Cc2ccccc2)CN1)C(=O)NCc1ccc(C(=N)N)cc1.Cl.Cl [1306_2]
6. CC(=O)Nc1ccc(CCN[C@H](CCc2ccccc2)C(=O)N[C@@H](C)C(=O)NCc2ccc(N)nc2C)cc1 [compound 1368, Dihydrochloride]

[A]
1: 5.05; 2: 4.36; 3: 4.35; 4: 4.37; 5: 3.99; 6: 4.30

* * *

- TESTED_ON: UniProt O00187
- ASSAY_COMMENT: MASP-2 co-crystallization, X-ray crystallography and structure analysis (H-bonds, van der Waals contacts)
- MEASUREMENT_CONDITIONS: Table A4-1; element C3
METRIC_NAME: Ligand-pharmacophore element distance, pharmacophore element C3

Report Ligand-pharmacophore element distance, pharmacophore element C3 for each item below.
1. Cc1nc(N)ccc1CNC(=O)[C@H](C)NC(=O)[C@H]1C[C@H](Cc2cccc(-c3ccccc3)c2)CN1 [compound 1406]
2. CC(=O)Nc1ccc(CCNC(CCc2ccccc2)C(=O)NC(C)C(=O)NCc2ccc(C(=N)N)cc2)cc1.Cl.Cl (stereo not drawn) [1345_1]
3. CC(NC(=O)C(CCc1ccccc1)NCCCc1ccc(O)cc1)C(=O)NCc1ccc(C(=N)N)cc1.Cl.Cl (stereo not drawn) [1145_A]
4. C[C@H](NC(=O)[C@H](N)CCc1cccc(Cl)c1)C(=O)NCc1ccc(C(=N)N)cc1 [compound 1081]
5. Cc1nc(N)ccc1CNC(=O)[C@H](C)NC(=O)[C@H]1C[C@H](Cc2cccc(Cl)c2)CN1.Cl.Cl [1328_4]
6. Cc1nc(N)ccc1CNC(=O)[C@H](C)NC(=O)[C@H]1C[C@H](Cc2ccc3ccccc3c2)CN1 [compound 1338]
7. C[C@H](NC(=O)[C@H]1C[C@@H](c2ccccc2)CCN1)C(=O)NCc1cc(Cl)ccc1O.Cl [1078_9]

[A]
0.12
0
0
0
0.18
0.12
0

* * *

- TESTED_ON: MASP-2 CCP2-SP (Homo sapiens (Human), UniProt O00187)
- ASSAY_COMMENT: MASP-2 co-crystallization, X-ray crystallography and structure analysis (H-bonds, van der Waals contacts)
- MEASUREMENT_CONDITIONS: Table A7-2; between pharmacophore elements of the bound compound
METRIC_NAME: Pharmacophore torsion angle a(O1, O2, N2, O3)
Numbers only.

In [3]: df
Out[3]:
                                   compound                                 tested_on  test_value
0  C[C@H](NC(=O)[C@@H](CCc1ccccc1)NCCCc1ccc(O)cc1)C(=O)NCc1ccc(C(=N)N)cc1.Cl.Cl [1145_B]  MASP-2 CCP2-SP (Homo sapiens (Human), UniProt O00187)      −10.98
1  CC(=O)Nc1ccc(CCNC(CCc2ccccc2)C(=O)NC(C)C(=O)NCc2ccc(C(=N)N)cc2)cc1.Cl.Cl (stereo not drawn) [1345_2]  MASP-2 CCP2-SP (Homo sapiens (Human), UniProt O00187)      −20.78

Below is a list of compounds. For each, state its recorded Pharmacophore torsion angle a(O1, O2, N2, O3).
1. CC(NC(=O)C(CCc1ccccc1)NCCCc1ccc(O)cc1)C(=O)NCc1ccc(C(=N)N)cc1.Cl.Cl (stereo not drawn) [1145_A]
2. CC(NC(=O)C(CCc1ccccc1)NCc1ccc(C(=O)N2CCOCC2)cc1)C(=O)NCc1ccc(C(=N)N)cc1.Cl.Cl (stereo not drawn) [1153_A]
3. CC(=O)Nc1ccc(CCNC(CCc2ccccc2)C(=O)NC(C)C(=O)NCc2ccc(C(=N)N)cc2)cc1.Cl.Cl (stereo not drawn) [1345_1]
4. C[C@H](NC(=O)[C@@H](CCc1ccccc1)NCc1ccc(C(=O)N2CCOCC2)cc1)C(=O)NCc1ccc(C(=N)N)cc1.Cl.Cl [1153_B]

[A]
1: −10.98; 2: 43.95; 3: −11.99; 4: −144.09
